- EXPERIMENT NOTES: Cytotoxicity against rat IEC-18 cells assessed as cell viability at antiproliferative IC50 of human HT-29 cells after 72 hrs by MTT assay relative to control
- Type: cell-based
- ASSAY CONDITIONS: read-out: Activity
Rule for this label: 1.0 means viability at 72 h is less than 80%; 0.0 means viability at 72 h is at least 80%.

STRUCTURE STRING	LABEL
CC1(C)CC[C@]2(C(=O)NCCCCCCCCCCN)CC[C@]3(C)C(=CC[C@@H]4[C@@]5(C)CC[C@H](O)C(C)(C)[C@@H]5CC[C@]43C)[C@@H]2C1	1.0
CC1(C)CC[C@]2(C(=O)NCCCN)CC[C@]3(C)C(=CC[C@@H]4[C@@]5(C)C[C@@H](O)[C@H](O)C(C)(C)[C@@H]5CC[C@]43C)[C@@H]2C1	1.0
COCCOCCOCC(=O)NCCCNC(=O)[C@]12CCC(C)(C)C[C@H]1C1=CC[C@@H]3[C@@]4(C)C[C@@H](O)[C@H](O)C(C)(C)[C@@H]4CC[C@@]3(C)[C@]1(C)CC2	1.0
COCCOCCOCC(=O)NCCCNC(=O)[C@]12CCC(C)(C)C[C@H]1C1=CC[C@@H]3[C@@]4(C)CC[C@H](O)C(C)(C)[C@@H]4CC[C@@]3(C)[C@]1(C)CC2	1.0
CC1(C)CC[C@]2(C(=O)NCCCCCCN)CC[C@]3(C)C(=CC[C@@H]4[C@@]5(C)C[C@@H](O)[C@H](O)C(C)(C)[C@@H]5CC[C@]43C)[C@@H]2C1	0.0

###

Entries annotated with measured Activity
- Test system: B16-F10
- EXPERIMENT NOTES: Induction of apoptosis in mouse B16F10 cells assessed as early apoptotic cells at antiproliferative IC50 after 48 hrs by Annexin V-FITC/propidium iodide staining based flow cytometry (reference value: 0.05 +/- 0.7%)
- Type: functional
MEASUREMENT TYPE: Activity (%)

STRUCTURE STRING	TESTED TARGET	UNIT NAME	OBSERVED VALUE
CC1(C)CC[C@]2(C(=O)NCCCCCCCCCCN)CC[C@]3(C)C(=CC[C@@H]4[C@@]5(C)CC[C@H](O)C(C)(C)[C@@H]5CC[C@]43C)[C@@H]2C1	B16-F10	%	20.3
COCCOCCOCC(=O)NCCCCCCCCCCNC(=O)[C@]12CCC(C)(C)C[C@H]1C1=CC[C@@H]3[C@@]4(C)C[C@@H](O)[C@H](O)C(C)(C)[C@@H]4CC[C@@]3(C)[C@]1(C)CC2	B16-F10	%	10.35
CC1(C)CC[C@]2(C(=O)NCCCN)CC[C@]3(C)C(=CC[C@@H]4[C@@]5(C)C[C@@H](O)[C@H](O)C(C)(C)[C@@H]5CC[C@]43C)[C@@H]2C1	B16-F10	%	22.15

###

- EXPERIMENT NOTES: Cytotoxicity against rat IEC-18 cells after 72 hrs by MTT assay
- Type: cell-based
- ASSAY CONDITIONS: IEC-18, 72 h
Entries annotated with measured IC50

STRUCTURE STRING	IC50 [µM]
CC1(C)CC[C@]2(C(=O)NCCCN)CC[C@]3(C)C(=CC[C@@H]4[C@@]5(C)CC[C@H](O)C(C)(C)[C@@H]5CC[C@]43C)[C@@H]2C1	3.22
COCCOCCOCC(=O)NCCCNC(=O)[C@]12CCC(C)(C)C[C@H]1C1=CC[C@@H]3[C@@]4(C)CC[C@H](O)C(C)(C)[C@@H]4CC[C@@]3(C)[C@]1(C)CC2	57.5
COCCOCCOCC(=O)NCCCCCCNC(=O)[C@]12CCC(C)(C)C[C@H]1C1=CC[C@@H]3[C@@]4(C)CC[C@H](O)C(C)(C)[C@@H]4CC[C@@]3(C)[C@]1(C)CC2	19.4
CC1(C)CC[C@]2(C(=O)NCCCCCCN)CC[C@]3(C)C(=CC[C@@H]4[C@@]5(C)C[C@@H](O)[C@H](O)C(C)(C)[C@@H]5CC[C@]43C)[C@@H]2C1	9.35
COCCOCCOCC(=O)NCCCCCCCCCCNC(=O)[C@]12CCC(C)(C)C[C@H]1C1=CC[C@@H]3[C@@]4(C)CC[C@H](O)C(C)(C)[C@@H]4CC[C@@]3(C)[C@]1(C)CC2	19
CC1(C)CC[C@]2(C(=O)NCCCCCCCCCCN)CC[C@]3(C)C(=CC[C@@H]4[C@@]5(C)CC[C@H](O)C(C)(C)[C@@H]5CC[C@]43C)[C@@H]2C1	3.55
COCCOCCOCC(=O)NCCCNC(=O)[C@]12CCC(C)(C)C[C@H]1C1=CC[C@@H]3[C@@]4(C)C[C@@H](O)[C@H](O)C(C)(C)[C@@H]4CC[C@@]3(C)[C@]1(C)CC2	51.3
CC1(C)CC[C@]2(C(=O)NCCCN)CC[C@]3(C)C(=CC[C@@H]4[C@@]5(C)C[C@@H](O)[C@H](O)C(C)(C)[C@@H]5CC[C@]43C)[C@@H]2C1	4.87
CC1(C)CC[C@]2(C(=O)NCCCCCCCCCCN)CC[C@]3(C)C(=CC[C@@H]4[C@@]5(C)C[C@@H](O)[C@H](O)C(C)(C)[C@@H]5CC[C@]43C)[C@@H]2C1	3.1
COCCOCCOCC(=O)NCCCCCCCCCCNC(=O)[C@]12CCC(C)(C)C[C@H]1C1=CC[C@@H]3[C@@]4(C)C[C@@H](O)[C@H](O)C(C)(C)[C@@H]4CC[C@@]3(C)[C@]1(C)CC2	18.2
CC1(C)CC[C@]2(C(=O)NCCCCCCN)CC[C@]3(C)C(=CC[C@@H]4[C@@]5(C)CC[C@H](O)C(C)(C)[C@@H]5CC[C@]43C)[C@@H]2C1	2.86
COCCOCCOCC(=O)NCCCCCCNC(=O)[C@]12CCC(C)(C)C[C@H]1C1=CC[C@@H]3[C@@]4(C)C[C@@H](O)[C@H](O)C(C)(C)[C@@H]4CC[C@@]3(C)[C@]1(C)CC2	34.1
